# measuredTarget: Cdk9/cyclinT1 (Homo sapiens (Human), UniProt P50750)
# Sequence (P50750 whole entry): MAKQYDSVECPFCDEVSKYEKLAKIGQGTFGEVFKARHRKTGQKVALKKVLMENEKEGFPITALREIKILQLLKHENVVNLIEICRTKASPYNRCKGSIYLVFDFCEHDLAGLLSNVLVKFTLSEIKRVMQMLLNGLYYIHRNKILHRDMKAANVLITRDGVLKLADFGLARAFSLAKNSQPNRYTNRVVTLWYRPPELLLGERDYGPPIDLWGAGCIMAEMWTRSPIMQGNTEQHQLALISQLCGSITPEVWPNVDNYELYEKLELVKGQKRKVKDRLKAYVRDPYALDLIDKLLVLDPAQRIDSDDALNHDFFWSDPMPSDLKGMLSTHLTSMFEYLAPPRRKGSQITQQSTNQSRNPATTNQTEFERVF
# Sequence (O60563 whole entry partner): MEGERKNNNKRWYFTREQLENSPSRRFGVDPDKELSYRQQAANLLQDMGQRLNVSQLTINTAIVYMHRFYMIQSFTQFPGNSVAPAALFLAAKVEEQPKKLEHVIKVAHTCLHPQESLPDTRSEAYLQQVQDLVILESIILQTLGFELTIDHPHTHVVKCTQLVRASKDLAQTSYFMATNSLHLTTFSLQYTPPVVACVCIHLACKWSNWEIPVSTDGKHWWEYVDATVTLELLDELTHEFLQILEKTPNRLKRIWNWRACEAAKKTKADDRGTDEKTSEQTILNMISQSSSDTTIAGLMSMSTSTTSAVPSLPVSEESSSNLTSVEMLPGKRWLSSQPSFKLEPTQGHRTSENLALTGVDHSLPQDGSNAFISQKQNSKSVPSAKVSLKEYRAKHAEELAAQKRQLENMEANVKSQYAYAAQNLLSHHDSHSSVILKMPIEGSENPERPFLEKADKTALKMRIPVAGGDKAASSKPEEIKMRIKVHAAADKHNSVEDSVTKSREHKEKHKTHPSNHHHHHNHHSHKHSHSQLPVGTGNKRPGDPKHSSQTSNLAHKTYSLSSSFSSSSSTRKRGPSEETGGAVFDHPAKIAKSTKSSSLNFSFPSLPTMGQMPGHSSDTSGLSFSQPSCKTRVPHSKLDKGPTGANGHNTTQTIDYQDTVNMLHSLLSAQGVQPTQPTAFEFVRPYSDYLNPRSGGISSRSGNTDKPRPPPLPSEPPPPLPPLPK
# assayMethodText: Cdk9/CyclinT1 IMAP Protocol (fluorescence polarization kinase assay)
# conditionSummary: Table 2; generated using one of the two Cdk9/cyclinT1 assays (IMAP or Alpha Screen), not specified which; unit inferred
# Description: Cdk9/CyclinT1 IMAP Protocol The biological activity of the compounds of the invention can be determined using the assay described below. Cdk9/cyclinT1 is purchased from Millipore, cat #14-685. The final total protein concentration in the assay 4 nM. […] Fluorescence polarization (FP) is used for detection. […] The binding of the IMAP Progressive Binding Reagent changes the fluorescence polarization of the 5TAMRA-cdk7tide peptide which is measured at an excitation of 531 nm and FP emission of 595 nm. […]
Task for the reader: assign each of the following compounds its reported pIC50.
To interpret pIC50, take it as minus log10 of a concentration measured in moles per litre.

Query for Cdk9/cyclinT1 (Homo sapiens (Human), UniProt P50750): what pIC50 does the record show for OC[C@H]1CC[C@H](Nc2cc(-c3cccc(NCc4cccc(F)c4)n3)c(Cl)cn2)CC1 [Compound 181] ?
8.10

Query for Cdk9/cyclinT1 (Homo sapiens (Human), UniProt P50750): what pIC50 does the record show for Fc1cccc(CNc2cccc(-c3cc(NC4CCNCC4)ncc3Cl)n2)c1 [Compound 5] ?
7.40

Query for Cdk9/cyclinT1 (Homo sapiens (Human), UniProt P50750): what pIC50 does the record show for N[C@H]1CC[C@H](Nc2cc(-c3nc(NCC4CCOCC4)ccc3Br)c(Cl)cn2)CC1 [Compound 286] ?
9.00

Query for Cdk9/cyclinT1 (Homo sapiens (Human), UniProt P50750): what pIC50 does the record show for CC(CS(C)(=O)=O)N[C@H]1CC[C@H](Nc2cc(-c3ccc(F)c(NCC4CCOCC4)n3)c(Cl)cn2)CC1 (stereo partly shown) [Compound 319] ?
8.40

Query for Cdk9/cyclinT1 (Homo sapiens (Human), UniProt P50750): what pIC50 does the record show for Clc1cnc(N[C@@H]2CCCNC2)cc1-c1cccc(NCc2ccncc2)n1 [Compound 93] ?
6.03

Query for Cdk9/cyclinT1 (Homo sapiens (Human), UniProt P50750): what pIC50 does the record show for Fc1cccc(CNc2cccc(-c3cc(NCCc4cccnc4)ncc3Cl)n2)c1 [Compound 175] ?
7.62

Query for Cdk9/cyclinT1 (Homo sapiens (Human), UniProt P50750): what pIC50 does the record show for O[C@H]1CC[C@H](Nc2cc(-c3cccc(NCc4cccc(F)c4)n3)c(Cl)cn2)CC1 [Compound 114] ?
8.10

Query for Cdk9/cyclinT1 (Homo sapiens (Human), UniProt P50750): what pIC50 does the record show for Clc1cnc(N[C@@H]2CCCNC2)cc1-c1cccc(NCC2CCCCC2)n1 [Compound 89] ?
5.59

Query for Cdk9/cyclinT1 (Homo sapiens (Human), UniProt P50750): what pIC50 does the record show for O[C@H]1CC[C@@H](Nc2cc(-c3cccc(NCc4cccc(F)c4)n3)c(Cl)cn2)CC1 [Compound 182] ?
7.68

Query for Cdk9/cyclinT1 (Homo sapiens (Human), UniProt P50750): what pIC50 does the record show for CO[C@H]1CC[C@H](Nc2cc(-c3cccc(NCc4cccc(F)c4)n3)c(Cl)cn2)CC1 [Compound 194] ?
7.32

Query for Cdk9/cyclinT1 (Homo sapiens (Human), UniProt P50750): what pIC50 does the record show for N[C@H]1CC[C@H](Nc2cc(-c3nc(NCC4CCOCC4)c(Cl)cc3Cl)c(Cl)cn2)CC1 [Compound 266] ?
8.10

Query for Cdk9/cyclinT1 (Homo sapiens (Human), UniProt P50750): what pIC50 does the record show for OCCCN[C@H]1CC[C@H](Nc2cc(-c3cccc(NCc4cccc(F)c4)n3)c(Cl)cn2)CC1 [Compound 200] ?
8.10

Query for Cdk9/cyclinT1 (Homo sapiens (Human), UniProt P50750): what pIC50 does the record show for OCCNc1cc(-c2cccc(NCc3cccc(F)c3)n2)c(Cl)cn1 [Compound 160] ?
7.72

Query for Cdk9/cyclinT1 (Homo sapiens (Human), UniProt P50750): what pIC50 does the record show for CC(C)Nc1cc(-c2cccc(NCc3cccc(F)c3)n2)c(Cl)cn1 [Compound 172] ?
7.82

Query for Cdk9/cyclinT1 (Homo sapiens (Human), UniProt P50750): what pIC50 does the record show for CCS(=O)(=O)NC[C@H]1CC[C@H](Nc2cc(-c3cccc(NCc4cccc(F)c4)n3)c(Cl)cn2)CC1 [Compound 79] ?
8.10

Query for Cdk9/cyclinT1 (Homo sapiens (Human), UniProt P50750): what pIC50 does the record show for NCCCNc1cc(-c2cccc(NCc3cccc(F)c3)n2)c(Cl)cn1 [Compound 144] ?
7.80

Query for Cdk9/cyclinT1 (Homo sapiens (Human), UniProt P50750): what pIC50 does the record show for COCCCNc1cc(-c2cccc(NCc3cccc(F)c3)n2)c(Cl)cn1 [Compound 147] ?
7.71

Query for Cdk9/cyclinT1 (Homo sapiens (Human), UniProt P50750): what pIC50 does the record show for COc1cccc(CNc2cccc(-c3cc(N[C@H]4CC[C@H](N)CC4)ncc3Cl)n2)c1 [Compound 44] ?
7.95

Query for Cdk9/cyclinT1 (Homo sapiens (Human), UniProt P50750): what pIC50 does the record show for COC[C@@H](C)N[C@H]1CC[C@H](Nc2cc(-c3nc(NC[C@@H]4CCCOC4)ccc3Cl)c(Cl)cn2)CC1 [Compound 323] ?
9.00

Query for Cdk9/cyclinT1 (Homo sapiens (Human), UniProt P50750): what pIC50 does the record show for N[C@H]1CC[C@H](Nc2cc(-c3cccc(NCc4ccccc4F)n3)c(Cl)cn2)CC1 [Compound 41] ?
7.89

Query for Cdk9/cyclinT1 (Homo sapiens (Human), UniProt P50750): what pIC50 does the record show for CC1(C)C[C@H](CNc2cccc(-c3cc(N[C@H]4CC[C@H](N)CC4)ncc3Cl)n2)CCO1 (single isomer, unassigned) [Compound 256] ?
8.10

Query for Cdk9/cyclinT1 (Homo sapiens (Human), UniProt P50750): what pIC50 does the record show for N[C@H]1CC[C@H](Nc2cc(-c3cccc(NCc4ccccc4)n3)ccn2)CC1 [Compound 31] ?
7.35

Query for Cdk9/cyclinT1 (Homo sapiens (Human), UniProt P50750): what pIC50 does the record show for CC1(C)C[C@@H](CNc2cccc(-c3cc(N[C@H]4CC[C@H](N)CC4)ncc3Cl)n2)CCO1 (single isomer, unassigned) [Compound 257] ?
8.10

Query for Cdk9/cyclinT1 (Homo sapiens (Human), UniProt P50750): what pIC50 does the record show for N[C@@H]1CC[C@@H](Nc2cc(-c3cccc(NCc4cccc(F)c4)n3)c(Cl)cn2)C1 [Compound 191] ?
8.10

Query for Cdk9/cyclinT1 (Homo sapiens (Human), UniProt P50750): what pIC50 does the record show for CN(C)C(=O)[C@H]1CC[C@@H](Nc2cc(-c3cccc(NCc4cccc(F)c4)n3)c(Cl)cn2)C1 [Compound 205] ?
7.76

Query for Cdk9/cyclinT1 (Homo sapiens (Human), UniProt P50750): what pIC50 does the record show for Cc1cnc(N[C@H]2CC[C@H](N)CC2)cc1-c1cccc(NCc2cccc(F)c2)n1 [Compound 211] ?
7.68

Query for Cdk9/cyclinT1 (Homo sapiens (Human), UniProt P50750): what pIC50 does the record show for Clc1cnc(NC2CCNCC2)cc1-c1cccc(NCC2CCCCC2)n1 [Compound 68] ?
6.56

Query for Cdk9/cyclinT1 (Homo sapiens (Human), UniProt P50750): what pIC50 does the record show for O[C@H]1CC[C@H](Nc2cc(-c3cccc(NCC4CCNCC4)n3)c(Cl)cn2)CC1 [Compound 119] ?
6.81

Query for Cdk9/cyclinT1 (Homo sapiens (Human), UniProt P50750): what pIC50 does the record show for N[C@H]1CC[C@H](Nc2cc(-c3cccc(NCc4cccc(F)c4)n3)ccn2)CC1 [Compound 32] ?
7.82

Query for Cdk9/cyclinT1 (Homo sapiens (Human), UniProt P50750): what pIC50 does the record show for N[C@H]1CC[C@H](Nc2cc(-c3cccc(NCc4cccc(O)c4)n3)c(Cl)cn2)CC1 [Compound 49] ?
7.84

Query for Cdk9/cyclinT1 (Homo sapiens (Human), UniProt P50750): what pIC50 does the record show for N[C@H]1CC[C@H](Nc2cc(-c3cccc(NCc4cc(F)cc(F)c4)n3)c(Cl)cn2)CC1 [Compound 29] ?
8.10
